Test system: HL-60(TB) leukemia
Assay: NCI-60 one-dose screen, 48 h
Details: 10 µM unless noted
Method: Growth inhibition of the HL-60(TB) human tumor cell line is measured as a screen for anti-cancer activity. Cells are grown in 96 well plates and exposed to the test compound for 48 hours. Compounds are tested at a single concentration, which is 10^-5 M for most compounds. The reported endpoint is percent growth (GI% or GIPRCNT), where numbers from 0 - 100% represent growth inhibition, and numbers from -100% - 0 represent cell death. For example, a value of 40 represents 60% growth inhibition. […]
The panel holds about 83,000 compounds, 20% with a hit somewhere; the sample as a whole holds those more often. Activity calls are given as the source filed them. How the source made its calls: active means growth percent below 10; inactive means the rest.
Answer with one of the outcomes given here: active, inactive

C=C(C)C1CCC2(C(=O)O)CCC3(C)C(CCC4C5(C)CCC(O)C(C)(C)C5CCC43C)C12 (stereo not given)
active
C(=N\Nc1ncc(-c2cc3cc4c(cc3o2)OCO4)s1)/c1c[nH]c2ccccc12
active
Cc1nn(-c2ccccc2)c2nc3nc4c(c(N)c3c(-c3ccc(Cl)cc3)c12)CCC4
inactive
CC(C)C1=C[C@@]23CC[C@@H]4[C@](C)(CCC[C@@]4(C)C(=O)OCC#CCN4CCCC4)[C@H]2C[C@@H]1[C@H]1C(=O)OC(=O)[C@H]13
inactive
CC(C)(C)OC(=O)NCc1cccc(N=C=S)c1
active
COc1cc(-c2cc(C(=O)Nc3nc4ccccc4s3)nc3cc(-c4ccccc4)nn23)cc(OC)c1OC
inactive

// query Hello, I am checking results. What call was entered for CCCCC#Cc1c(I)n(C)c(=O)[nH]c1=O ?
// result active

// query Hello, I am checking results. What call was entered for CN(Cc1cnc2nc(N)nc(N)c2n1)c1c(Cl)cc(C(=O)NC(CCC(=O)O)C(=O)O)cc1Cl (stereo not given) ?
// result inactive

// query Hello, I am checking results. What call was entered for CCOC(=O)C1=CSC2=NC3=C(CCC/C3=C\c3cc(OC)c(OC)c(OC)c3)C(c3cc(OC)c(OC)c(OC)c3)N12 (stereo not given) ?
// result inactive

// query Hello, I am checking results. What call was entered for CC(=O)OC1CCC2(C)C(CCC3C4CC=C(C(C)=O)C4(C)OC(=O)CC32)C1 (stereo not given) ?
// result active

* * *

system: OVCAR-3 ovarian; test: NCI-60 one-dose screen, 48 h (100 = growth as untreated, 0 = no growth, -100 = all killed); conditions: 10 µM unless noted
About 83,000 compounds went through this panel and 20% of them were active in at least one assay; those are over-represented in the sample as a whole. Active and inactive are the calls of the source. The calls were made as follows: active = growth percent below 10; inactive = the rest.
property-measured: growth

C[C@@H]1CC[C@@H]2[C@@H]1[C@H](OC(=O)/C=C/C1CCCCC1)[C@]1(C3CCCCC3)C[C@@H](OC(=O)CO)[C@@]2(C)O1
70.6% (inactive)
NC(=O)SCC(=O)Nc1ccc([As](=O)(O)O)cc1
103% (inactive)
COc1cc[c]([Hg][Cl])cc1
-71.5% (active)
NCCc1cc(O)c(O)cc1O
111% (inactive)
CCN(CC)c1ccc(C=C2C(=O)NC(=S)NC2=O)cc1
80.6% (inactive)
NC(Cc1ccc2c(c1)OCO2)c1ccc2c(c1)OCO2 (stereo unspecified)
120% (inactive)

Would you mind listing growth for each of the following compounds?
1. CO[C@@H]1[C@H](OC(=O)NC(=O)CCl)CC[C@]2(CO2)[C@H]1[C@@]1(C)O[C@@H]1CC=C(C)C
2. CNC(=O)Oc1cc(C(C)C)ccc1Sc1ccc(C(C)C)cc1OC(=O)NC
3. C[C@]12CCC(=O)CC1CC[C@@H]1C2CC[C@@]2(C)C1CC[C@@H]2OC(=O)CC[Se][Se]CCC(=O)O[C@H]1CCC2[C@@H]3CCC4CC(=O)CC[C@]4(C)C3CC[C@@]21C (stereo partly specified)
4. N#[N+]c1nc2nc(N)[nH]c(=O)c2[nH]1

// result
["71.8% (inactive)", "69.2% (inactive)", "109% (inactive)", "113% (inactive)"]

Record Cc1cc(NC(=O)CCc2ccc(N3C(N)=NC(N)=NC3(C)C)cc2)ccc1S(=O)(=O)F , field growth: 71.5% (inactive)

* * *

system: TK-10 renal; assay: NCI-60 one-dose screen, 48 h; conditions: 10 µM unless noted
Compounds without any hit were thinned out: in the full panel of roughly 83,000, 20% have a hit. Calls of active or inactive are those of the source. How the source made its calls: active means growth percent below 10; inactive means the rest.
Answer with one of the outcomes given here: active, inactive

Consider the worked cases shown below.
CC[C@@]1(C2O[C@@H](C3O[C@@](O)(CC)[C@H](C)C[C@@H]3C)C[C@@H]2C)CC[C@H]([C@]2(C)CCC3(C[C@H](O)[C@@H](C)[C@@H]([C@H](C)[C@@H](OC)[C@H](C)C(=O)O)O3)O2)O1 (stereo not given in full)
inactive
O=CN1N=C(c2ccccc2)CC1c1sc(N(CCCl)CCCl)nc1Cl (stereo not given)
inactive
OC1CCCCC1N1CCC(c2ccccc2)CC1 (stereo not given)
inactive
CCC(CO)NC1CCCCC1 (stereo not given)
inactive
COC(C)(C)CCC[C@H](C)C/C=C/C(C)=C/C(=O)OC(C)C
inactive
COc1c(O)c2c3c(c1OC)-c1ccccc1CC3N(C)CC2 (stereo not given)
inactive

// query Hello, I am checking results. What call was entered for CCOC(=O)C1(c2ccccc2)CCN(CC(=O)c2ccc(NC(C)=O)cc2)CC1 ?
// result inactive

// query Hello, I am checking results. What call was entered for N#CC1c2ccccc2C=CN1C(=O)c1ccc(N(CCCl)CCCl)cc1 (stereo not given) ?
// result inactive

* * *

test system: HL-60(TB) leukemia; experiment: NCI-60 one-dose screen, 48 h; details: 10 µM unless noted
The panel holds about 83,000 compounds, 20% with a hit somewhere; the sample as a whole holds those more often. Active and inactive are the calls of the source. Rule for the calls: active = growth percent below 10; inactive = the rest.
Answer with one of the outcomes given here: active, inactive

Consider the worked cases shown below.
COc1cc(/C=N/NC(=O)c2ccccc2Nc2ccnc(C(F)(F)F)c2)ccc1O
inactive
COc1cc(C(=O)/C=C/c2cccnc2Nc2ccc(Cl)cc2)cc(OC)c1OC
active

// query Hello, I am checking results. What call was entered for Cc1cc(N=C2C=CC(=[N+](C)C)C=C2)c(N)cc1N ?
// result inactive

// query Hello, I am checking results. What call was entered for CCCCCCCCCNCCCCCCCCC ?
// result inactive

* * *

test system: HL-60(TB) leukemia; assay: NCI-60 one-dose screen, 48 h (100 = growth as untreated, 0 = no growth, -100 = all killed); details: 10 µM unless noted
The panel holds about 83,000 compounds, 20% with a hit somewhere; the sample as a whole holds those more often.
property-measured: growth (%)
Answers are plain numbers, in %.

Would you mind listing growth for each of the following molecules?
1. CO[C@H]1/C=C/C=C/C=C/C[C@H](OC(=O)[C@@H](C)NC(=O)C2CCCCC2)[C@H](C)[C@@H](O)/C(C)=C\CCC2=CC(=O)C=C(NC(=O)C1)C2=O
2. CCCCn1c(NC(C)=O)c(S(=O)(=O)c2ccccc2)c2nc3ccccc3nc21
3. O=C(NCCCNc1cc(-c2cn(-c3ccccc3)nc2-c2cccc(O)c2)ccn1)c1ccccc1

// result
1. -26.6
2. 88.5
3. 8.91

* * *

Tested on: HL-60(TB) leukemia
Assay: NCI-60 one-dose screen, 48 h
Conditions: 10 µM unless noted
Description: Growth inhibition of the HL-60(TB) human tumor cell line is measured as a screen for anti-cancer activity. Cells are grown in 96 well plates and exposed to the test compound for 48 hours. Compounds are tested at a single concentration, which is 10^-5 M for most compounds. The reported endpoint is percent growth (GI% or GIPRCNT), where numbers from 0 - 100% represent growth inhibition, and numbers from -100% - 0 represent cell death. For example, a value of 40 represents 60% growth inhibition. […]
The panel holds about 83,000 compounds, 20% with a hit somewhere; the sample as a whole holds those more often. The source made the active and inactive calls. How the source made its calls: active means growth percent below 10; inactive means the rest.
Answer with one of the outcomes given here: label 1 for active, label 0 for inactive

Consider the worked cases shown below.
CN1CCN(c2ccc(NC(=O)c3cncnc3Nc3ccc4c(ccn4Cc4cccc(F)c4)c3)cc2)CC1
label 1
Cc1c2cnccc2c(C)c2c1c1cc(CO)ccc1n2C
label 1
O=C1CCC(=O)N1Cc1ccccc1
label 0
O=C(c1ccccc1)C(Nc1ccccc1)c1ccccc1 (stereo unspecified)
label 0
CCOC(=O)c1ccc(N(C=O)CCC(=O)CCl)cc1
label 1

Below: the item to evaluate.
// query Hello, I am checking results. What call was entered for CN(C)c1ccc2nc3ccc(=N)cc-3sc2c1 ?
// result label 1

* * *

For each entry below, report its growth value.
system: KM12 colon; assay: NCI-60 one-dose screen, 48 h (100 = growth as untreated, 0 = no growth, -100 = all killed); settings: 10 µM unless noted
The panel holds about 83,000 compounds, 20% with a hit somewhere; the sample as a whole holds those more often.
Numbers only, in %.

O=C1c2ccccc2C(=O)N1[N+](=O)[O-]
101

Would you mind listing growth for each of the following compounds?
1. CC(=O)Oc1ccc(Cl)cc1
2. Nc1cccc2c1Oc1ccccc1O2

// result
1: 86.3; 2: 114

Would you mind listing growth for each of the following compounds?
1. C[C@]12CC[C@H](OC3OC(O)C(O)C(O)C3O)C=C1CCC1C2CC[C@]2(C)[C@@H](c3ccc(=O)oc3)CC[C@]12O (some centres undefined)
2. CNC(=O)Oc1cccc(OC)c1

// result
-93.8
112
